Classification field: enter met for melting point values not below 30 °C, not met for values below it.

Q: Please check the record O=C(c1nn2c(nc(=O)c3ccccc32)s1)c1cccc2ccccc12 and state if its melting point is at or above 30 °C.
Ans: met

Q: CC(CCC(=O)O)Cc1ccccc1 (configuration not stated) ?
Ans: met

Q: C1=CCCCCC1 ?
Ans: not met

Q: O=C(O)c1ccccc1C(=O)Nc1ccc(S(=O)(=O)N=c2[nH]ccs2)cc1 ?
Ans: met

Q: CCCCCCCCCCCC(CCCCCCCC)c1ccccc1 (configuration not stated) ?
Ans: not met

Q: Cc1ccc(N(CCO)CCO)cc1N=Nc1ccc([N+](=O)[O-])cc1 ?
Ans: met

// next entry
Q: Please check the record Cc1ccc(S(=O)(=O)N(C)Cc2ccc(N)cc2)cc1 and state if its melting point is at or above 30 °C.
Ans: met
